biological target: SARS-CoV-2 Papain-like (PLpro) protease (Severe acute respiratory syndrome coronavirus 2, UniProt P0DTD1); test: SARS-CoV-2 Papain-like (PLpro) protease biochemical enzyme inhibition assay (ubiquitin-fluorophore substrate, Ub-R110); details: Ub-R110 substrate; run in duplicate; read-out: PLpro IC50
pIC50: −log10 of the molar value.
parameter.measured: pIC50

- input.smiles: "N#CCNC(=O)C(=O)NCc1ccccc1C(=O)NC1(c2ccc(F)c(OC(F)(F)F)c2)CC1"
  result: "5.00 to 6.00"
- input.smiles: "O=C(NCC#Cc1ccc(C(F)(F)F)cn1)C(=O)NCc1ccccc1C(=O)NC1(c2ccc3ccccc3c2)CC1"
  result: "> 7.00"
- input.smiles: "N#CCNC(=O)C(=O)NCc1ccccc1C(=O)NC1(c2cc(-c3ccn(C4CC4)n3)cc(F)c2F)CC1"
  result: "> 7.00"

Below: the item to evaluate.
Can you look up the measured pIC50 of Cc1nn(C)cc1-c1cc(F)cc(C2(NC(=O)c3ccccc3CNC(=O)C(=O)N[C@@H](C)C#Cc3ncccc3Cl)CC2)c1 for me? > 7.00

###

biological target: SARS-CoV-2 Papain-like (PLpro) protease (Severe acute respiratory syndrome coronavirus 2); assay: SARS-CoV-2 Papain-like (PLpro) protease biochemical enzyme inhibition assay (ubiquitin-fluorophore substrate, Ub-R110); conditions: Ub-R110 substrate; run in duplicate; read-out: PLpro IC50
parameter.measured: IC50

Observe how each entry below is paired with its result.
- input.smiles: "C#CCNC(=O)C(=O)NCc1ccccc1C(=O)NC1(c2cc(C#C)cc(C(F)(F)F)c2)CC1"
  IC50: "< 100 nM"
- input.smiles: "O=C(NCC#Cc1ccc(F)cc1F)C(=O)NCc1ccccc1C(=O)NC1(c2ccc3ccccc3c2)CC1"
  IC50: "> 10000 nM"
- input.smiles: "COC(=O)/C=C/CNC(=O)C(=O)NCc1ccccc1C(=O)N[C@H](C)c1cccc2ccccc12"
  IC50: "< 100 nM"
- input.smiles: "COc1cc(C2(NC(=O)c3ccccc3CNC(=O)C(=O)NCC#Cc3ccc(C#N)cc3OC(F)(F)F)CC2)cc2cn(C3CC3)nc12"
  IC50: "< 100 nM"
- input.smiles: "N#CCNC(=O)C(=O)NCc1ccccc1C(=O)NC1(c2cc(Br)cc3ccccc23)CC1"
  IC50: "< 100 nM"

Can you look up the measured IC50 of N#CCNC(=O)C(=O)NCc1ccc(C(=O)N2CC(F)(F)C2)cc1C(=O)NC1(c2ccc(F)c3ccccc23)CC1 for me? < 100 nM

Note, next up: N#Cc1ccc(C#CCNC(=O)C(=O)NCc2ccccc2C(=O)NC2(c3ccc4ccccc4c3)CC2)nc1 < 100 nM

Note, next up: CCOc1cccnc1C#CCNC(=O)C(=O)NCc1ccccc1C(=O)NC1(c2ccc3ccccc3c2)CC1 < 100 nM

Note, next up: Cn1cc(-c2cc(F)cc(C3(NC(=O)c4ccccc4CNC(=O)C(=O)NCC#N)CC3)c2)cn1 < 100 nM

Note, next up: O=C(NCC#Cc1nccs1)C(=O)NCc1ccccc1C(=O)NC1(c2ccc3ncccc3c2)CC1 < 100 nM

###

molecular target: SARS-CoV-2 Papain-like (PLpro) protease (Severe acute respiratory syndrome coronavirus 2, UniProt P0DTD1); assay: SARS-CoV-2 Papain-like (PLpro) protease biochemical enzyme inhibition assay (ubiquitin-fluorophore substrate, Ub-R110); conditions: Ub-R110 substrate; run in duplicate; read-out: PLpro IC50
parameter.measured: IC50

- compound: "C[C@@H](NC(=O)c1ccccc1CNC(=O)C(=O)NC/C=C/C(=O)NC(C)(C)CO)c1cccc2ccccc12"
  result: "1000 to 10000 nM"

Can you look up the measured IC50 of O=C(NCC#Cc1nccs1)C(=O)NCc1ccccc1C(=O)NC1(c2cc(Cl)cc(-c3ccccc3F)c2)CC1 for me? < 100 nM

Note, next up: COC(=O)/C(C)=C/CNC(=O)C(=O)NCc1ccccc1C(=O)N[C@H](C)c1cccc2ccccc12 < 100 nM

Note, next up: C#CCNC(=O)C(=O)NCc1ccccc1C(=O)NC1(c2cccc(-c3cccs3)c2Cl)CC1 < 100 nM

###

test system: SARS-CoV-2 replicon; experiment: microbe, parasite or virus in culture; assay type: cell-based; details: Severe acute respiratory syndrome coronavirus 2, Huh-7
pEC50: −log10 of the molar value.
Listed here: items and their measured pEC50.

Observe how each entry below is paired with its result.
- molecule: "COC(=O)/C=C/CNC(=O)C(=O)NCc1ccccc1C(=O)N[C@H](C)c1cc(-c2cnn(C(F)F)c2)cc(C(F)(F)F)c1 [Example 462]"
  result: "> 6.00"
- molecule: "N#CCNC(=O)C(=O)NCc1ccccc1C(=O)NC1(c2cc(-c3cncs3)cc3ccccc23)CC1 [Example 349]"
  result: "> 6.00"
- molecule: "N#CN1CC[C@H](C(=O)NCc2ccccc2C(=O)NC2(c3cc(Br)cc4ccccc34)CC2)C1 [Example 417]"
  result: "> 6.00"

Can you look up the measured pEC50 of O=C(C#CCNC(=O)C(=O)NCc1ccccc1C(=O)NC1(c2cccc3ccccc23)CC1)N[C@]12C[C@](C(F)(F)F)(C1)C2 [Example 525] for me? > 6.00

###

target: SARS-CoV-2 Papain-like (PLpro) protease (Severe acute respiratory syndrome coronavirus 2, UniProt P0DTD1); experiment: SARS-CoV-2 Papain-like (PLpro) protease biochemical enzyme inhibition assay (ubiquitin-fluorophore substrate, Ub-R110); details: Ub-R110 substrate; run in duplicate; read-out: PLpro IC50
pIC50: −log10 of the molar value.
Listed here: items and their measured pIC50.

Can you look up the measured pIC50 of C[C@@H](NC(=O)c1ccccc1CNC(=O)C(=O)NC/C=C/C(=O)O)c1cccc2ccccc12 for me? 5.00 to 6.00

Note, next up: COc1cc(C2(NC(=O)c3ccccc3CNC(=O)C(=O)N[C@@H](C)C#Cc3ccc(C#N)cc3OC(F)(F)F)CC2)cc2cn(C3CC3)nc12 > 7.00

Note, next up: CC(C)(O)Cn1cc(-c2cc(C3(NC(=O)c4ccccc4CNC(=O)C(=O)NCC#N)CC3)c3ccccc3c2)cn1 > 7.00

Note, next up: C[C@@H](NC(=O)c1ccccc1CNC(=O)C(=O)NCC#N)c1cc(-c2ccco2)cc(C(F)(F)F)c1 > 7.00

###

target: SARS-CoV-2 Papain-like (PLpro) protease (Severe acute respiratory syndrome coronavirus 2); assay: SARS-CoV-2 Papain-like (PLpro) protease biochemical enzyme inhibition assay (ubiquitin-fluorophore substrate, Ub-R110); settings: Ub-R110 substrate; run in duplicate; read-out: PLpro IC50
pIC50: −log10 of the molar value.
Listed here: items and their measured pIC50.

- input.smiles: "N#CCNC(=O)C(=O)NCc1ccccc1C(=O)NC1(c2cc(Oc3cccc(C(F)(F)F)c3)cc(C(F)(F)F)c2)CC1"
  result: "< 5.00"
- input.smiles: "N#CCNC(=O)C(=O)NCc1ccccc1C(=O)NC1(c2cccc(-c3ccc(F)cc3)c2Cl)CC1"
  result: "6.00 to 7.00"
- input.smiles: "COC(=O)/C=C/CNC(=O)C(=O)NCc1ccccc1C(=O)NC1(c2cccc3ccccc23)CC1"
  result: "> 7.00"
- input.smiles: "C[C@@H](NC(=O)c1ccccc1CNC(=O)C(=O)NCCC(=O)C(F)(F)F)c1cccc2ccccc12"
  result: "5.00 to 6.00"
- input.smiles: "COC(=O)/C=C/CNC(=O)C(=O)NCc1ccccc1C(=O)NC1(c2ccc3ccccc3c2)CC1"
  result: "> 7.00"
- input.smiles: "O=C(NCC#Cc1nccs1)C(=O)NCc1ccccc1C(=O)NC1(c2cc3ccccc3cn2)CC1"
  result: "> 7.00"

Below: the item to evaluate.
Can you look up the measured pIC50 of O=C(NCC#Cc1ccc(C(F)(F)F)cc1F)C(=O)NCc1ccccc1C(=O)NC1(c2ccc3ccccc3c2)CC1 for me? 6.00 to 7.00

###

system: SARS-CoV-2 replicon; test: microbe, parasite or virus in culture; assay type: cell-based; conditions: Severe acute respiratory syndrome coronavirus 2, Huh-7
parameter.measured: EC50

Observe how each entry below is paired with its result.
- input.smiles: "N#CCNC(=O)C(=O)NCc1ccccc1C(=O)NC1(c2cc(Cl)cc(-c3cncs3)c2)CC1"
  parameter.measured: "EC50"
  result: "1000 to 10000 nM"
- input.smiles: "O=C(NCC#Cc1cncnc1)C(=O)NCc1ccccc1C(=O)NC1(c2cccc3ccccc23)CC1"
  parameter.measured: "EC50"
  result: "< 1000 nM"
- input.smiles: "N#CCNC(=O)C(=O)NCc1ccccc1C(=O)NC1(c2cc(Cl)cc(-n3cccn3)c2)CC1"
  parameter.measured: "EC50"
  result: "1000 to 10000 nM"
- input.smiles: "Cn1cc2cc(C3(NC(=O)c4ccccc4CNC(=O)C(=O)NCC#Cc4ncccc4Cl)CC3)ccc2n1"
  parameter.measured: "EC50"
  result: "< 1000 nM"
- input.smiles: "O=C(NC/C=C/C(=O)N1CCCC1)C(=O)NCc1ccccc1C(=O)NC1(c2cccc3ccccc23)CC1"
  parameter.measured: "EC50"
  result: "1000 to 10000 nM"
- input.smiles: "N#CCNC(=O)C(=O)NCc1ccccc1C(=O)NC1(c2ccc(F)c(Br)c2)CC1"
  parameter.measured: "EC50"
  result: "> 10000 nM"
- input.smiles: "COC(=O)Cn1cc(-c2cc(C3(NC(=O)c4ccccc4CNC(=O)C(=O)NCC#N)CC3)c3ccccc3c2)nn1"
  parameter.measured: "EC50"
  result: "1000 to 10000 nM"
- input.smiles: "Cn1cc2cc(C3(NC(=O)c4ccccc4CNC(=O)C(=O)NCC#Cc4ccc(C#N)cc4OC(F)(F)F)CC3)ccc2n1"
  parameter.measured: "EC50"
  result: "< 1000 nM"
- input.smiles: "N#CCNC(=O)C(=O)NCc1ccccc1C(=O)NC1(c2ccc(F)c3ccccc23)CC1"
  parameter.measured: "EC50"
  result: "< 1000 nM"
- input.smiles: "O=C(NCC#Cc1nccs1)C(=O)NCc1ccccc1C(=O)NC1(c2ccc3ccccc3c2)CC1"
  parameter.measured: "EC50"
  result: "< 1000 nM"

Can you look up the measured EC50 of C[C@@H](C#Cc1ccc(C#N)cc1Cl)NC(=O)C(=O)NCc1ccccc1C(=O)NC1(c2ccc3nn(C)cc3c2)CC1 for me? < 1000 nM

Note, next up: COc1cc(C2(NC(=O)c3ccccc3CNC(=O)C(=O)NC/C=C/c3ncccn3)CC2)cc2cn(C3CC3)nc12 < 1000 nM

Note, next up: O=C(NCC#Cc1cscn1)C(=O)NCc1ccccc1C(=O)NC1(c2ccc3ccccc3c2)CC1 1000 to 10000 nM

Note, next up: COc1nccnc1C#CCNC(=O)C(=O)NCc1ccccc1C(=O)NC1(c2ccc3ccccc3c2)CC1 < 1000 nM

Note, next up: O=C(NCC#Cc1ccc(Cl)nn1)C(=O)NCc1ccccc1C(=O)NC1(c2ccc3ccccc3c2)CC1 < 1000 nM

meta.source: patent US20240327334A1
